# IC50 per entry
study_target: UniProtKB B4EMD2
Sequence (B4EMD2 1-202): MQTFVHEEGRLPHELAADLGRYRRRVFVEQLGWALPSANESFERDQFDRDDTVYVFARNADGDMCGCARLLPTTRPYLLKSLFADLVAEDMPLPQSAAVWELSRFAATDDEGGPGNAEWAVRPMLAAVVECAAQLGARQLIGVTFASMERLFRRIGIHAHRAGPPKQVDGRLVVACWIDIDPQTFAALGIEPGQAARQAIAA
measurement_notes: CepI enzymatic assay (holo-ACP formation with DCPIP)
Assay type: biochemical, Burkholderia cenocepacia J2315
Protocol: Determination of the CepI enzyme activity was performed spectrophotometrically by measuring holo-ACP formation with dichlorophenylindophenol (DCPIP; ε = 19100 M^−1 cm^−1) at 37 °C according to Christensen et al.[19]. […] CepI inhibition was initially screened for all compounds at 100 μM (dissolved in DMSO). […] To determine IC50, the enzyme activities were measured in presence of different concentrations of compounds and values determined with equation (1): […]
Kindly provide the numeric value in µM only, without the unit symbol.

O=C1CNC(=O)C(c2cc(OCc3ccccc3)ccc2OCc2ccccc2)N1 (centres unmarked)	30

Turning now to a further compound:
Ask | Given the compound O=C1C=CC(=O)C(C2NC(=O)C(Cc3ccccc3)NC2=O)=C1 (centres unmarked) , write its reported IC50.
Reply | 5

Value source: paper PMC5007513
